- system_tested: mfPRLR.mmh (monomeric macaca fascicularis PRLR)
- Sequence (as listed by the source): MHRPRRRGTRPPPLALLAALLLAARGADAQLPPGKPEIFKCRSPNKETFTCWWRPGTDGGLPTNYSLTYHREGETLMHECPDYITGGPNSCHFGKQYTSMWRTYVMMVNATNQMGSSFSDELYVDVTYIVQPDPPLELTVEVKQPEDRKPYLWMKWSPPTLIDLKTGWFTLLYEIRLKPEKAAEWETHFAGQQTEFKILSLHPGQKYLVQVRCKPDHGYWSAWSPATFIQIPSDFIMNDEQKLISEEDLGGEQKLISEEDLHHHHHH
- procedure_details: Surface plasmon resonance (Biacore T200), mAb-capture format
- Type: binding
- assay_context: 25° C., antibody-capture format, analyte mfPRLR.mmh
quantity_name: Kd
Remember to follow the number with its unit.

molecule	Kd
H1H6790P: anti-PRLR antibody, human IgG1 Fc; HCVR/LCVR SEQ ID NOs 114/122 (antibody, V domains shown, human IgG1 Fc) VH: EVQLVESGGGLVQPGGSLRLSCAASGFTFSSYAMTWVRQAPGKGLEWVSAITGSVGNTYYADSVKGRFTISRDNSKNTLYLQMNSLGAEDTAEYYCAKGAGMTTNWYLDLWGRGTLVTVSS VL: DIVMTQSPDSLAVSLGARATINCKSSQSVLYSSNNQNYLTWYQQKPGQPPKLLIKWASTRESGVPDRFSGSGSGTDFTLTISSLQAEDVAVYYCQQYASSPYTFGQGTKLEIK	2.04 nM

Request: Entry H1H6958N2: human IgG1 Fc form of H2M6958N2; anti-PRLR, receptor blocking; HCVR/LCVR SEQ ID NOs 290/298 (antibody, V domains shown, human IgG1 Fc) VH: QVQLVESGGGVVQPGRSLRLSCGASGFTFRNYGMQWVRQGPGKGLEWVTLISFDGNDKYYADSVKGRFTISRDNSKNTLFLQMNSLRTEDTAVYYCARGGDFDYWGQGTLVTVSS VL: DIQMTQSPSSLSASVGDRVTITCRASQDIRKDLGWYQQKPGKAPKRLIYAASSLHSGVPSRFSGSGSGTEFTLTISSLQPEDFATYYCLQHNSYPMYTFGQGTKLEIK : reported Kd = ?
Response: 1.44 nM
